Would you mind telling me the reported self-cleavage of each entry?
B1: HDV Ribozyme (parent)
chain: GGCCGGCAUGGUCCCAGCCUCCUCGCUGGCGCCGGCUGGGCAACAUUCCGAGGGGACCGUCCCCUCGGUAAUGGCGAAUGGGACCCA

Variants of: B1
measurement notes: self-cleavage, relative activity (ratio to wild type); higher = more cleavage; co-transcriptional
The response must contain the number and no unit.

Given item `GGCCGGCCUGGUCCCAGCCUCCUCGCUGGCGCCGGCUGGGCAACAUUCCAAGGGGACCGUCCCCUCGGUAAUGGCGAAUGGGACCCA` , the value recorded as its self-cleavage is 0.96

Given item `GUCCGGCAUGGUCCCAGCCUCCUCGCUGGCGCCGGCUGGGCAACAUUCCGAGGGGACCGUCCCCUCGGUAAUGGCGAAUGGGACCCG` , the value recorded as its self-cleavage is 0.0468

Given item `GGCCGGCCUGGUCCCAGCCUCCUCGCUGGCGCCGGCUGGGCAAUAUUCCGAGGGGACCGUCCCCUCGGUAAUGGCGAAUGGGACCCA` , the value recorded as its self-cleavage is 0.199

Given item `GGCCGGCAUGGUCCCAGCCUCCUCGCUGGCGCCGGCUGGGCAAUAUUCCGAGGGGACCGUCGCCUCGGUAAUGGCGAAUGGGACCCA` , the value recorded as its self-cleavage is 0.464

Given item `GGCCCGCAUGGGCCCAGCCUCCUCGCUGGCGCCGGCUGGGCAACAUUCCGAGGGGACCGUCCCCUCGGUAAUGGCGAAUGGGACCCA` , the value recorded as its self-cleavage is 0.0831

Given item `GGCCGGCAUGGUCGCAGCCUCCUCGCUGGUGCCGGCUGGGCAACAUUCCGAGGGGACCGUCCCCUCGGUAAUGGCGAAUGGGACCCA` , the value recorded as its self-cleavage is 0.0396

Given item `GGCCGGCAUGGCCCCAGCCUCCUCGCUGGCGCCGGCUGGGCAACAUUCGGAGGGGACCGUCCCCUCGGUAAUGGCGAAUGGGACCCA` , the value recorded as its self-cleavage is 0.199

Given item `GGCCGGCAUGGUCCCAGCCUCCUCGCUGGCGCCGGCUGGGCAACAUUCCGGGGGGACCGUCCCCUCGGUAACGGCGAAUGGGACCCA` , the value recorded as its self-cleavage is 0.864

Given item `GGCCGGCAUGGUCCCAGCCUCCUCGGUGGCGCCGGCUGGGCAACAUUCCGAGGGGACUGUCCCCUCGGUAAUGGCGAAUGGGACCCA` , the value recorded as its self-cleavage is 0.931

Given item `GGCCGGCGUGGUCCCAGCCUCCUCGCUGGCGCCGGCUGGGCAACAUUCCGAGGGGACCGUCCCCUCGAUAAUGGCGAAUGGGACCCA` , the value recorded as its self-cleavage is 1.03

Given item `GGCCGACAUGGUCUCAGCCUCCUCGCUGGCGCCGGCUGGGCAACAUUCCGAGGGGACCGUCCCCUCGGUAAUGGCGAAUGGGACCCA` , the value recorded as its self-cleavage is 0.87

Given item `GGCCGGCAUGGUCCCAGCCGCCUCGCUGGCGCCGGCUGGGCAACAUUCCGAGGGGACCCUCCCCUCGGUAAUGGCGAAUGGGACCCA` , the value recorded as its self-cleavage is 0.361

Given item `GGCCGGCAUGGUCCAAGCCUCCUCGCUGGCGCCGGCUGGGCAACAUUCCGAGGGGACCGUCCCCUCGGUAAUGGCGAAUAGGACCCA` , the value recorded as its self-cleavage is 0.831

Given item `GGCCGGGAUGGUCCCAGCCUCCUCGCUGGCGCCGGCUGGGCAACAUUCCGAGGGGACCGUCCUCUCGGUAAUGGCGAAUGGGACCCA` , the value recorded as its self-cleavage is 0.674

Given item `GGCCGGCAUGGUCCCAGCCUCCUCGCUGGCGCCGACUGGGCAACACUCCGAGGGGACCGUCCCCUCGGUAAUGGCGAAUGGGACCCA` , the value recorded as its self-cleavage is 0.289

Given item `GGCCGGCAUGGUCCCAGCCUCCUCGCUGGCGCCGGCUGGGCAAGAUUCCGAGGGGACCGUUCCCUCGGUAAUGGCGAAUGGGACCCA` , the value recorded as its self-cleavage is 0.378

Given item `GGCCGGCAUGGUCCCAUCCUCCUCGCUGGCGCCGGCUGGGCAACAUUGCGAGGGGACCGUCCCCUCGGUAAUGGCGAAUGGGACCCA` , the value recorded as its self-cleavage is 0.482

Given item `GGCCGGCAUGGUCCCAGCCUCCUCGCUGGCGCCGGCUGGGCAACAUUCCGAGGGGACCGUCCCCCCGGUAAUAGCGAAUGGGACCCA` , the value recorded as its self-cleavage is 0.746

Given item `GGCAGGCAUGGUCCCAGCCACCUCGCUGGCGCCGGCUGGGCAACAUUCCGAGGGGACCGUCCCCUCGGUAAUGGCGAAUGGGACCCA` , the value recorded as its self-cleavage is 0.0386

Given item `GGCCGGCAUGGUCCCAGCCUCCUCGCUGGCGCCGGCUGGGCAACAUUCCAAAGGGACCGUCCCCUCGGUAAUGGCGAAUGGGACCCA` , the value recorded as its self-cleavage is 0.888

Given item `GGCCGGCAUGGUCCCAGCCUCCUCGCUGGCUCCGGCUGGGCAACAUUCCGAGGGGACCGUCCCCUCGGUAAUGGAGAAUGGGACCCA` , the value recorded as its self-cleavage is 0.0665

Given item `GGCCGGCAUGGUCCCAGCCUCCUCGCUGGCGCCGGCUGGGCAUCAUUCCGAGGGGGCCGUCCCCUCGGUAAUGGCGAAUGGGACCCA` , the value recorded as its self-cleavage is 0.665

Given item `GUCCGGCAUGCUCCCAGCCUCCUCGCUGGCGCCGGCUGGGCAACAUUCCGAGGGGACCGUCCCCUCGGUAAUGGCGAAUGGGACCCA` , the value recorded as its self-cleavage is 0.0314

Given item `GGCCGGCAUGGUCCCAGACUUCUCGCUGGCGCCGGCUGGGCAACAUUCCGAGGGGACCGUCCCCUCGGUAAUGGCGAAUGGGACCCA` , the value recorded as its self-cleavage is 0.089

Given item `GGCGGGCAUGGUCCCAGCCCCCUCGCUGGCGCCGGCUGGGCAACAUUCCGAGGGGACCGUCCCCUCGGUAAUGGCGAAUGGGACCCA` , the value recorded as its self-cleavage is 0.0791

Given item `GGCCGGCAUGGUCCCAGCCUCCUCGCUGGCGCCGGCUGGGCAACAUUCCGAGGGGACCGUCCCCGCGGUAAUGGAGAAUGGGACCCA` , the value recorded as its self-cleavage is 0.259

Given item `GGCCGGCAUGGUCCCAGCCUCCUCGCAGGCGCCGGCUGGGUAACAUUCCGAGGGGACCGUCCCCUCGGUAAUGGCGAAUGGGACCCA` , the value recorded as its self-cleavage is 1.07

Given item `GGCCGGCAUGUUCCCAGCCUCCUCGCUGGCGCCGGCUGGGCAACAUUCCGAGGGGACCGUCCCCUCGGUAAUGGCGAAUAGGACCCA` , the value recorded as its self-cleavage is 0.136

Given item `GGCCGGCAUGGUUCCAGCCUCCUCGCUGGCGCCGGCUGGGCAACAUUCCGAGGGGACCGUCCACUCGGUAAUGGCGAAUGGGACCCA` , the value recorded as its self-cleavage is 0.542

Given item `GGCCGGCAUGGUUGCAGCCUCCUCGCUGGCGCCGGCUGGGCAACAUUCCGAGGGGACCGUCCCCUCGGUAAUGGCGAAUGGGACCCA` , the value recorded as its self-cleavage is 0.391

Given item `GGCCGGCAUUGUCCCAGCCUCCUCGCUGGCGCCGGCUGGGCAACAUUCCGAGGGGACCGUCCCCUCGGUAAUGCCGAAUGGGACCCA` , the value recorded as its self-cleavage is 0.138
